Tested on: weeds (ABUTH, AMATA, AMBEL, CHEAL, ERICA)
method: Postemergence herbicide evaluation, overall average % weed control across ABUTH, AMATA, AMBEL, CHEAL, ERICA
Type: in vivo
measurement conditions: post-emergence, 168 h; 560 g ae/ha, 7 DAA, average over the five weeds; read-out: Overall Ave % Weed Control
Classification field: Condition met = pest or weed control at 560 g/ha at or over 70%; Condition not met = pest or weed control at 560 g/ha under 70%.

Inquiry: Textbook exercise: given the entry N/C(=N\OC(=O)COc1ccc(Cl)cc1Cl)c1ccc(/C(N)=N/OC(=O)COc2ccc(Cl)cc2Cl)cc1 [Compound B5] , state whether its pest or weed control at 560 g/ha is greater than or equal to 70%.
Reply text: Condition not met

Inquiry: Textbook exercise: given the entry Cn1c(O)c(C(=O)COc2ccc(Cl)cc2Cl)c2ccccc21 [Compound C1] , state whether its pest or weed control at 560 g/ha is greater than or equal to 70%.
Reply text: Condition not met

Inquiry: Textbook exercise: given the entry O=C(COc1ccc(Cl)cc1Cl)O/N=C/c1ccc(/C=N/OC(=O)COc2ccc(Cl)cc2Cl)cc1 [Compound B3] , state whether its pest or weed control at 560 g/ha is greater than or equal to 70%.
Reply text: Condition not met

Inquiry: Textbook exercise: given the entry Cc1cc(OC(=O)COc2ccc(Cl)cc2Cl)n(C)n1 [Compound E6] , state whether its pest or weed control at 560 g/ha is greater than or equal to 70%.
Reply text: Condition met

Inquiry: Textbook exercise: given the entry O=C(COc1ccc(Cl)cc1Cl)NOc1ccccc1 [Compound D7] , state whether its pest or weed control at 560 g/ha is greater than or equal to 70%.
Reply text: Condition met

Inquiry: Textbook exercise: given the entry O=C(COc1ccc(Cl)cc1Cl)Oc1ccc(Cl)cc1 [Compound E5] , state whether its pest or weed control at 560 g/ha is greater than or equal to 70%.
Reply text: Condition met

Inquiry: Textbook exercise: given the entry CS/C(C)=N\OC(=O)COc1ccc(Cl)cc1Cl [Compound A10] , state whether its pest or weed control at 560 g/ha is greater than or equal to 70%.
Reply text: Condition met

Inquiry: Textbook exercise: given the entry CN(OC(=O)COc1ccc(Cl)cc1Cl)C(=O)c1ccccc1 [Compound A16] , state whether its pest or weed control at 560 g/ha is greater than or equal to 70%.
Reply text: Condition met
